Target: human serum albumin (HSA) (Homo sapiens) (UniProt P02768)
Details: Nap-dU at n (6) positions [Nap-dU at 16,20,23,28,29,30,31,34,40,41,42,45,54]; ELISA, SB18, 37 C
Property: pKd
Scale note: pKd = -log10(concentration in M).

*Q* Provide measured pKd value, entry: GAGTGACCGTCTGCCTGGATCCTGCCCTTTTAATCCGACTTTAATGGCCACGCTCACCAGCCACACCACCAGCC [AA001]
*A* 8.02

----------
Target: human serum albumin (HSA) (Homo sapiens) (UniProt P02768)
Details: Nap-dU at n (6) positions [Nap-dU at 16,18,20,27,32,33,34,40,42,44,46,54]; ELISA, SB18, 37 C
Property: pKd
Hey, just a heads up that pKd is the negative log base 10 of the concentration in molar.

*Q* Report pKd, nothing else, for this sequence: GAGTGACCGTCTGCCTGTCTCCAACCTCGCCTTTACAACTATATCTGACGAACTAACACAGCCACACCACCAGCC [AB001]
*A* 8.08

----------
Consider the following sequences and their measured pKd readings.
Molecular target: human serum albumin (HSA) (Homo sapiens)
Conditions: Nap-dU at n (6) positions [Nap-dU at 29,36,38,41,44,45,48,57]; ELISA, SB18, 37 C
Quick note: pKd values are minus log10 of concentrations in mol/L.

> print(dat)
                             sequence.entry  assay.result
1  GAGTGACCGTCTGCCTGACAACAACGAGTGCGAACTGTACTACTTGATAGAGACCCTC [AP023]          7.29

// below: pKd requested for another sequence
*Q* Report pKd, nothing else, for this sequence: GAGTGACCGTCTGCCTGACAACAACGAGTGCGAACTGTACTACTTGATAGAGACCCTCAGCCACACCACCAGCC [AP013]
*A* 7.72

----------
Tested on: KRAS G12D G12D, P01116-2
Conditions: Nap-dU at n (6) positions [4,8,14,21-23,25]; ELISA, SB18, 37 C
Property: Kd (nM)
// units = nM; emit number, no label

*Q* State Kd (KRAS G12D G12D, P01116-2) of GCATAAGTCCGGATGGCAGCTTTATGC [AD008] .
*A* 287

----------
Molecular target: human serum albumin (HSA) (Homo sapiens) (UniProt P02768)
Settings: Nap-dU at n (6) positions [4,8,14,21-23,25]; ELISA, SB18, 37 C
Property: pKd
A value of pKd is the negative decimal logarithm of a concentration given in moles per litre.

*Q* Write down pKd measured for item GCATAAGTCCGGATGGCAGCTTTATGC [AD008]
*A* 7.17

----------
System: KRAS G12D G12D, P01116-2
Conditions: Nap-dU at n (6) positions [18,20,26,27,29,31,35,36,42,45,53,54,55,56]; ELISA, SB18, 37 C
Property: pKd
By convention, pKd is the negative base-10 log of a molar concentration.

*Q* Look up pKd of GAGTGACCGTCTGCCTGTGTGAGAATTATGTACCTTAACGATCATCCGAAGGTTTTGACCACAGCCACACCACCAGCC [AD001] and report it.
*A* 8.09
